This collection of values is drawn from patent US8759400B2.

Consider the following compounds and their measured MTT HMEC readings.
- Tested on: HMEC
- ASSAY DETAILS: Mammalian cytotoxicity, MTT reduction
- SETUP CONDITIONS: Table 9 head
Lab book: enter the figure in pM, no units written.

IN: Form field: reported MTT HMEC of O=C(Cc1ccc(CCCc2ccccc2)cc1)NO [drawing 145]
OUT: 47

IN: Give its MTT HMEC value. Item: CC(/C=C/C(=O)NO)=C\C(C)Cc1ccc(N(C)C)cc1 (centres unmarked) [drawing 143]
OUT: 44

IN: Looking for the measured MTT HMEC of O=C(CCc1ccc(CCCc2ccccc2)cc1)NO [drawing 146] , can you help?
OUT: 40

IN: # query: MTT HMEC of entry O=C(CCc1ccc(CCc2ccccc2)cc1)NO [drawing 147]
OUT: 10

IN: Recorded MTT HMEC of O=C(Cc1ccc(CCCCc2ccccc2)cc1)NO [drawing 144] , please.
OUT: 13

* * *

MIC: recorded values
- Tested on: C. glabrata (ATCC 90030)
- ASSAY DETAILS: MIC80 and checkerboard synergy with antifungal agents
- Type: cell-based, Candida glabrata
- SETUP CONDITIONS: Nakaseomyces glabratus, ATCC90030; compound alone; C. glabrata (ATCC 90030); read-out: MIC80
Just the number in µg/mL, nothing appended.

Consider the following illustrative entries.
O=C(CCc1ccc(CCCc2ccccc2)cc1)NO | 25
O=C(CCc1ccc(CCc2ccccc2)cc1)NO | 16

Let us move to another entry and its MIC.
IN: What measured MIC is associated with O=C(Cc1ccc(CCCCc2ccccc2)cc1)NO on C. glabrata (ATCC 90030)?
OUT: 6.25

* * *

- Tested on: HMEC
- ASSAY DETAILS: Mammalian cytotoxicity, MTT reduction
Cut-off 20 µM on MTT HMEC, inclusive. At or above means T; below means F.

Use the examples below as a reference point.
O=C(CCc1ccc(CCCc2ccccc2)cc1)NO [Cpd 6] | T
COC(c1ccc(N(C)C)cc1)C(C)/C=C(C)/C=C/C(=O)NO (stereo not drawn) [Cpd 10] | T
CC(/C=C/C(=O)NO)=C\C(C)Cc1ccc(N(C)C)cc1 (stereo not drawn) [drawing 150] | T

IN: # check: MTT HMEC of CC(/C=C/C(=O)NO)=C\C(C)Cc1ccc(N(C)C)cc1 (stereo not drawn) [drawing 152] is greater than or equal to 20 µM
OUT: T

IN: Is reported MTT HMEC greater than or equal to 20 µM here: O=C(NO)c1ccc(CCCCCc2ccccc2)cc1 [Cpd 3]
OUT: F

IN: Entry O=C(Cc1ccccc1)NC(=S)Nc1ccc(Nc2ccnc3ccsc23)cc1 [Cpd 20] : is its MTT HMEC no less than 20 µM?
OUT: T

IN: Entry CC(/C=C/C(=O)NO)=C\[C@@H](C)C(=O)c1ccc(N(C)C)cc1 [TSA, trichostatin A, reference compound] : is its MTT HMEC no less than 20 µM?
OUT: F

IN: Could you tell me if the measured MTT HMEC of CC(/C=C/C(=O)NO)=C\C(C)Cc1ccc(N(C)C)cc1 (stereo not drawn) [drawing 125] reaches 20 µM or more?
OUT: T

IN: Identify whether the reported MTT HMEC of the following compound is 20 µM or greater: O=C(NO)c1ccc(CCCC(O)c2ccc3ccccc3c2)cc1 (stereo not drawn) [Cpd 16]
OUT: T

IN: Does the compound O=C(CCc1ccc(CCc2ccccc2)cc1)NO [Cpd 7] have recorded MTT HMEC that is 20 µM or more?
OUT: F

IN: Hi, just wondering whether O=C(NO)c1ccc(CN2c3ccccc3NC(=O)[C@H]2Cc2ccc3ccccc3c2)cc1 [Cpd 22] shows MTT HMEC of 20 µM or higher.
OUT: F

IN: Check the entry CC(/C=C/C(=O)NO)=C\C(C)Cc1ccc(N(C)C)cc1 (stereo not drawn) [drawing 131] : does MTT HMEC equal or exceed 20 µM?
OUT: T

IN: Quick check: does CC(/C=C/C(=O)NO)=C\C(C)Cc1ccc(N(C)C)cc1 (stereo not drawn) [Cpd 12] have MTT HMEC greater than or equal to 20 µM?
OUT: T

IN: Evaluate CC(/C=C/C(=O)NO)=C\C(C)Cc1ccc(N(C)C)cc1 (stereo not drawn) [drawing 137] : MTT HMEC at minimum 20 µM?
OUT: T

IN: Check if MTT HMEC >= 20 µM (inclusive). Item: O=C(CCCCCCC(=O)Nc1ccccc1)NO [SAHA, suberoylanilide hydroxamic acid, reference compound]
OUT: F

IN: Does the reported MTT HMEC for COc1ccc(C(OC)C(C)(C)CCCCC(=O)NO)cc1 (stereo not drawn) [Cpd 11] fall at or above the 20 µM mark?
OUT: T
